The measurements presented in this section are drawn from ChEMBL document CHEMBL4346694.

assay: Cytotoxicity against human hTERT-BJ cells assessed as reduction in cell viability measured after 72 hrs by SRB assay
Type: cell-based
condition_parameters: read-out: LD50
measured_quantity: CC50 at 72 h (nM)
Express the result in nM but write the number alone.

Requested field: CC50 at 72 h. Item: c1cc2cc(c1)-c1cccc(c1)CNCCN1CCNCc3cccc(c3)-c3cccc(c3)CNCCN(CCNC2)CCNCc2cccc(c2)-c2cccc(c2)CNCC1
2600

Please answer likewise for c1cc2nc3ccc4cc3cc2cc1CNCCOCCNCc1ccc2nc3ccc(cc3cc2c1)CNCCOCCNC4
1000

Also c1cc2c3cccc(c3c1)CNCCOCCNCc1cccc3c(cccc13)CNCCOCCNC2 ?
40
